experiment: protein stability index of a GFP-peptide fusion (GPS, HEK-293T) (PSI 1-6); higher = more stable; settings: treatment: DMSO; c terminus: a fixed tail appended;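 further: 24-mer peptide tiles fused after GFP, lentivirally expressed, FACS-sorted into six equal bins by GFP/DsRed ratio, decoded by Illumina sequencing, PSI is the read-weighted mean bin number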

Entry sequence	protein stability index
CPLLLGSVMAIERCIGVTKPIFHS [PTGFR]	2.78
YIPSSYVDSHHEYPAMTFYSPAVM [ESR2]	2.73
YNLTILDCLQGIRKGLQHGFFDFE [CDC14A]	2.68
RENILVSLGAVGEGFHNYHHSFPY [SCD]	2.22
TVDKCFGRKKYDIDPRNGIPKLTP [SPATS1]	3.45
NSTPLRAACFDGRLDIVKYLVENN [FEM1B]	2.84
GTSTWQFNFKFNLTEDMYAQDSIE [CNOT7]	2.4
PQKSYFIRLYGLQAGRLLWEQELY [WAS]	2.28
ETLSGHGPLAQPLTLQVLVAGNPQ [ADAMTS4]	3
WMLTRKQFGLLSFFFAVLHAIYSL [STEAP1]	1.95
DHLGWVARGTGSGEDSSTSSSTPL [RTN2]	4.73
AWFFSKTEELNKEVASNTEMIQTS [KRT15]	3.83
LSNKNGKNVELKFVDSIRRQFEFS [TENT5C]	2.56

----------
Entries and their protein stability index
assay: protein stability index of a GFP-peptide fusion (GPS, HEK-293T) (PSI 1-6); higher = more stable; conditions: treatment: MLN4924 1 uM, 8 h; c terminus: a fixed tail appended

Entry sequence	protein stability index
QYQQVPVEIVKSDFHKPFLGGFRH [IQUB]	2.99
LRKRKEIREDRDRARLDSMVLLIM [DLC1]	2.17
DGSVVRDFEHRPKAPVVECSITGD [WDR88]	5.32
RLASFDSSGKLICSRTTGYQILTL [GMCL1]	2.55
TNTHPPASLPSQKYPGPQAEGDSE [CHGA]	5.57
AHLGEEAHKCLECGKCFSQNTHLT [ZNF263]	3.55
GETGSGDQAGGEGKHITVFKTYIS [MYOZ1]	4.06
NGASWHTVAGSLNDFSYLHTNCFE [CPXM2]	2.83
IDKKPVSEKTDESDTIPYLKKFLY [MIA2]	2.95
PPLTRQIAVKTLGIGKNVICDRTA [GFOD1]	3.92
AEMAEDYPRYPDIHDLDLTLLNPR [CLCN6]	4.21
FFRKLLDCCQVSAPNRFFQKLNVF [NLN]	2.47
KKQTKVEFPEARIFEETLNILIYE [KCTD13]	2.44
ALRVQQLVAKELGQTGTRLTPADK [AUP1]	4.16
RGGDGEVASAPLQPPVPSLSEVKP [TRADD]	5.04
SSSSGPGHGEPDVLKDELQLYGDA [TMEM40]	5.32
GFFSSAFQARLSGNNLHNASIPEH [POMT2]	3.07
CELAQDKEAAEAIEAEGATAPLTE [CTNNB1]	5.53
AIFDAGTLGGELGALEALELSPPL [FOXJ1]	3.31
RQEYQKALQEYSSISEKLSSTNFA [C8orf76]	3.69
FKLLAGRWPFDHNDFGVFLCKLFP [EDNRA]	2.5
SSWDIDGRATKRRKKSGDLKKAKV [FBXO34]	4.79
LTQPLQGGTPHCEPCQLPSESPGS [DNAAF3]	5.12
FFIGFTALVIMWQKHYVYGPLPQS [COX4I1]	3.36
MSEPAGDVRQNPCGSKACRRLFGP [CDKN1A]	3.61
ASMSPDATKPSHWCSVAYWEHRTR [SMAD6]	2.87
KRKKLSTWKQELLKLMDRHKKDCA [ZNF75A]	2.83

Just for reference, the supplement of paper PMC10567573 is where these values come from.
